TARGET_SYSTEM: NA of Beth15 (Influenza A virus, UniProt A0A193ACB1)
MEASURED_ENDPOINT: IC50 (nM)
Write the answer as a number in nM, unit excluded.

Q: Look up IC50: CCC(CC)[C@H](NC(C)=O)[C@@H]1[C@H](O)[C@@H](C(=O)O)C[C@H]1N=C(N)N [Peramivir, peramivir]
Ans: 0.12
